Test system: U-937
experimentDescription: Inhibition of LPS/IFN-gamma-induced PGE2 production in PMA-treated human U937 cells at 25 uM after 17 to 20 hrs by enzyme immunoassay relative to control
Type: functional
Below, each of the compounds is paired with its reported inhibition at 25 µM value.
Please append the unit to your numeric answer.

Reference set (4 entries):
COc1cc(/C=C2\CCC/C(=C\c3ccc(C)cc3)C2=O)ccc1O: 85%
Cc1ccc(/C=C2\CCC/C(=C\c3ccc(Cl)c(Cl)c3)C2=O)cc1: 68%
O=C1/C(=C/c2ccc(-c3ccc(F)cc3)cc2)CCC/C1=C\c1ccc(Cl)c(Cl)c1: 76%
O=C1/C(=C/c2ccc(Br)cc2)CCC/C1=C\c1ccc(-c2ccc(F)cc2)cc1: 66%

Next compound, please.
State the recorded inhibition at 25 µM for this entry: COc1cc(/C=C2\CCC/C(=C\c3ccc(O)cc3)C2=O)ccc1O 88%

====

experimentDescription: Cytotoxicity against mouse RAW264.7 cells assessed as cell viability at 25 uM by MTT assay relative to control
Assay type: cell-based
conditionsUsed: read-out: Activity
Listing of recorded viability at 25 µM by entry.

COc1cc(/C=C2\CCC/C(=C\c3ccc(O)cc3)C2=O)ccc1O: < 50%
Cc1ccc(/C=C2\CCC/C(=C\c3ccc(Cl)c(Cl)c3)C2=O)cc1: 95%
O=C1/C(=C/c2ccc(-c3ccc(F)cc3)cc2)CCC/C1=C\c1ccc(Cl)c(Cl)c1: 100%
O=C1/C(=C/c2ccc(Br)cc2)CCC/C1=C\c1ccc(-c2ccc(F)cc2)cc1: 92%
COc1cccc(/C=C2\CCC/C(=C\c3ccc(C)cc3)C2=O)c1OC: 100%
COc1cc(/C=C/C(=O)CC(=O)/C=C/c2ccc(O)c(OC)c2)ccc1O: 90%

Param item = Cc1ccc(/C=C2\CCC/C(=C\c3ccc(C)o3)C2=O)cc1 ; retrieve measured viability at 25 µM. 83%

Okay, and COc1cccc(/C=C2\CCC/C(=C\c3ccc(Cl)c(Cl)c3)C2=O)c1OC ? 77%

====

Test system: RAW264.7
experimentDescription: Inhibition of LPS/IFN-gamma-induced PGE2 production in mouse RAW264.7 cells at 25 uM after 17 to 20 hrs by enzyme immunoassay relative to control
Assay type: functional
propertyName: inhibition at 25 µM (%)
Give your result in % as a bare value.

Below are worked cases with known answers.
Cc1ccc(/C=C2\CCC/C(=C\c3ccc(C)o3)C2=O)cc1: 92
O=C1/C(=C/c2ccc(-c3ccc(F)cc3)cc2)CCC/C1=C\c1ccc(Cl)c(Cl)c1: 59
CCN(CC)c1ccc(/C=C2\CCC/C(=C\c3ccc(O)c(OC)c3)C2=O)cc1: 95
COc1cc(/C=C2\CCC/C(=C\c3ccc(Br)cc3)C2=O)ccc1O: 96
COc1cccc(/C=C2\CCC/C(=C\c3ccc(Cl)c(Cl)c3)C2=O)c1OC: 73

Look up inhibition at 25 µM for this compound: COc1cc(/C=C2\CCC/C(=C\c3ccc(C)cc3)C2=O)ccc1O 95

Repeat for the following compound: O=C1/C(=C/c2ccc(Br)cc2)CCC/C1=C\c1ccc(-c2ccc(F)cc2)cc1 53

====

Test system: U-937
experimentDescription: Inhibition of LPS/IFN-gamma-induced PGE2 production in PMA-treated human U937 cells at 25 uM after 17 to 20 hrs by enzyme immunoassay relative to control
Format: functional
Recorded inhibition at 25 µM, one value per entry.
Entry rule: numbers only, all in %.

COc1cccc(/C=C2\CCC/C(=C\c3ccc(-c4ccc(F)cc4)cc3)C2=O)c1OC: 68

Can you share its inhibition at 25 µM? I mean this compound: Cc1ccc(/C=C2\CCC/C(=C\c3cccc4ccccc34)C2=O)cc1 66

Try this compound next: CCN(CC)c1ccc(/C=C2\CCC/C(=C\c3ccc(-c4ccc(F)cc4)cc3)C2=O)cc1 72

What would you report for CCN(CC)c1ccc(/C=C2\CCC/C(=C\c3ccc(O)c(OC)c3)C2=O)cc1 ? 85

Please give the result for COc1cc(/C=C2\CCC/C(=C\c3ccc(Br)cc3)C2=O)ccc1O too. 87

====

# reported inhibition at 25 µM; entries follow
System: U-937
experimentDescription: Inhibition of LPS/IFN-gamma-induced PGE2 production in PMA-treated human U937 cells at 25 uM after 17 to 20 hrs by enzyme immunoassay relative to control
Type: functional
Use % as the unit, but write only the number.

Below: 3 molecules and their reported inhibition at 25 µM.
COc1cccc(/C=C2\CCC/C(=C\c3ccc(C)cc3)C2=O)c1OC: 83
COc1cc(/C=C/C(=O)CC(=O)/C=C/c2ccc(O)c(OC)c2)ccc1O: 94
Cc1ccc(/C=C2\CCC/C(=C\c3ccc(C)o3)C2=O)cc1: 84

Please look up its inhibition at 25 µM: COc1cccc(/C=C2\CCC/C(=C\c3ccc(Cl)c(Cl)c3)C2=O)c1OC 58

Follow-up entry: COc1ccc(/C=C2\CCC/C(=C\c3ccc(O)c(OC)c3)C2=O)cc1 86

====

experimentDescription: Cytotoxicity against mouse RAW264.7 cells assessed as cell viability at 5 uM by MTT assay relative to control
propertyName: viability at 5 µM (%)
Write the number in % without appending the unit.

GET /values?readout=viability at 5 µM&item= CS(=O)(=O)Nc1ccc([N+](=O)[O-])cc1Oc1ccccc1 [NIMESULIDE] 100

====

experimentDescription: Cytotoxicity against PMA-treated human U937 cells assessed as cell viability at 25 uM by MTT assay relative to control
Format: cell-based, U-937
conditionsUsed: read-out: Activity
propertyName: viability at 25 µM (%)
Your answer should be a plain number; it is taken to be in %.

Observe how each entry below is paired with its result.
COc1cccc(/C=C2\CCC/C(=C\c3ccc(C)cc3)C2=O)c1OC: 100
COc1cc(/C=C2\CCC/C(=C\c3ccc(C)cc3)C2=O)ccc1O: 100
O=C1/C(=C/c2ccc(-c3ccc(F)cc3)cc2)CCC/C1=C\c1ccc(Cl)c(Cl)c1: 94
Cc1ccc(/C=C2\CCC/C(=C\c3ccc(Cl)c(Cl)c3)C2=O)cc1: 100
COc1ccc(/C=C2\CCC/C(=C\c3ccc(O)c(OC)c3)C2=O)cc1: 100
Cc1ccc(/C=C2\CCC/C(=C\c3cccc4ccccc34)C2=O)cc1: 94
CCN(CC)c1ccc(/C=C2\CCC/C(=C\c3ccc(O)c(OC)c3)C2=O)cc1: 100
COc1cc(/C=C/C(=O)CC(=O)/C=C/c2ccc(O)c(OC)c2)ccc1O: 95

I'd like to know its viability at 25 µM. The compound in question is COc1cccc(/C=C2\CCC/C(=C\c3ccc(Cl)c(Cl)c3)C2=O)c1OC 100

====

Tested on: RAW264.7
experimentDescription: Inhibition of LPS/IFN-gamma-induced PGE2 production in mouse RAW264.7 cells after 17 to 20 hrs by enzyme immunoassay
Type: functional, cell-based
pIC50: −log10 of the molar value.
Param threshold (5) applies to pIC50; output satisfied when value >= threshold, not satisfied when value < threshold.

# count of solved cases: 4
Cc1ccc(/C=C2\CCC/C(=C\c3ccc(C)o3)C2=O)cc1: satisfied
CS(=O)(=O)Nc1ccc([N+](=O)[O-])cc1Oc1ccccc1 [NIMESULIDE]: satisfied
COc1ccc(/C=C2\CCC/C(=C\c3ccc(O)c(OC)c3)C2=O)cc1: satisfied
COc1cc(/C=C/C(=O)CC(=O)/C=C/c2ccc(O)c(OC)c2)ccc1O: not satisfied

Would you kindly look at the next entry?
Does COc1cc(/C=C2\CCC/C(=C\c3ccc(O)cc3)C2=O)ccc1O have a reported pIC50 of at least 5? satisfied

====

Test system: RAW264.7
experimentDescription: Inhibition of LPS/IFN-gamma-induced nitric oxide production in mouse RAW264.7 cells at 25 uM relative to control
Assay type: functional
// values below are reported inhibition at 25 µM
# include the unit after the value

COc1ccc(/C=C2\CCC/C(=C\c3ccc(O)c(OC)c3)C2=O)cc1: 100%

For the compound COc1cc(/C=C2\CCC/C(=C\c3ccc(Br)cc3)C2=O)ccc1O , what inhibition at 25 µM is on record? 100%

Cc1ccc(/C=C2\CCC/C(=C\c3ccc(Cl)c(Cl)c3)C2=O)cc1 ? 71%

What do we get for COc1cc(/C=C2\CCC/C(=C\c3ccc(C)cc3)C2=O)ccc1O ? 100%

Next: Cc1ccc(/C=C2\CCC/C(=C\c3ccc(C)o3)C2=O)cc1 99%

====

testedOn: Prostaglandin G/H synthase 1 (Ovis aries)
experimentDescription: Inhibition of ovine COX1 at 25 uM by ELISA relative to control
Activity calls are given as the source filed them. The calls are words filed in the database; no cut-off is given here.
propertyName: inhibition

Example cases with answers are listed next.
COc1ccc(/C=C2\CCC/C(=C\c3ccc(O)c(OC)c3)C2=O)cc1: inactive
COc1cc(/C=C2\CCC/C(=C\c3ccc(O)cc3)C2=O)ccc1O: inactive
Cc1ccc(/C=C2\CCC/C(=C\c3ccc(C)o3)C2=O)cc1: inactive
COc1cccc(/C=C2\CCC/C(=C\c3ccc(C)cc3)C2=O)c1OC: inactive

So what does the record say about inhibition for COc1cc(/C=C/C(=O)CC(=O)/C=C/c2ccc(O)c(OC)c2)ccc1O [CURCUMIN] ? inactive
